# experimentalTarget: hCB2R (Homo sapiens)
# experiment: DiscoveRx HitHunter inhibition of FSK-stimulated cAMP accumulation
# Format: cell-based
# studyConditions: Inhibition of cAMP EC50 (95% C.I.), CHO-K1 hCB2R, 10 µM FSK, 90 min

{"compound": "Cc1c(Br)cn(Cc2ccc(F)cc2)c(=O)c1NC(=O)C1CCCCCC1 [EC21a, reference compound]", "experimentalTarget": "hCB2R (Homo sapiens)", "EC50": "> 10 µM"}

----------
Collected βarrestin2 recruitment E max (% CP55,940) ± S.E.M values appear next to each entry.
# experimentalTarget: hCB2R (Homo sapiens, UniProt P34972)
# Sequence (P34972 whole entry): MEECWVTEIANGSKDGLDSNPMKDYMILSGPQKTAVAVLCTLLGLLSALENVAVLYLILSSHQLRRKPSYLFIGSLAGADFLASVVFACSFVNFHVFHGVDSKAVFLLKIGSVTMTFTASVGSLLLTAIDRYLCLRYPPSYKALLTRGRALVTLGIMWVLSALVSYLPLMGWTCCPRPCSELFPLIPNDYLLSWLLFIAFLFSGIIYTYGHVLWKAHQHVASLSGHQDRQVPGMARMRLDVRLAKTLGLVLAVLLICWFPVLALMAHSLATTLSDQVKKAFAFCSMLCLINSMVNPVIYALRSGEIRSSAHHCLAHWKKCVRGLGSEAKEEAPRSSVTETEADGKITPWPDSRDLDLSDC
# experiment: DiscoveRx PathHunter βarrestin2 recruitment
# Assay type: cell-based
# studyConditions: CHO-K1 hCB2R, 90 min
# Protocol: βarrestin2 recruitment was quantified using the DiscoveRx PathHunter® assay. […] Detection solution was added to cells (DiscoveRx), and cells were incubated for 60 min at room temperature. Chemiluminescence was measured on a Cytation5 plate reader (top read, gain 200, integration time 10,000 ms).
parameterMeasured: βarrestin2 recruitment E max (% CP55,940) ± S.E.M

{"compound": "Cc1c(Br)cn(Cc2ccc(F)cc2)c(=O)c1NC(=O)C1CCCCCC1 [EC21a, reference compound]", "experimentalTarget": "hCB2R (Homo sapiens, UniProt P34972)", "result": "1.4 ± 0.96 % CP55,940"}
{"compound": "Cc1c(Br)cn(CCCCCn2c(=O)c(C(=O)NC3CCC(C)CC3)cc3cccnc32)c(=O)c1NC(=O)C1CCCCCC1 (stereo not drawn) [JR61a]", "experimentalTarget": "hCB2R (Homo sapiens, UniProt P34972)", "result": "34 ± 2.2 % CP55,940"}
{"compound": "Cc1c(Br)cn(CCCc2cn(CCCCC(=O)NC3CCC(NC(=O)c4cc5cccnc5n(Cc5ccc(F)cc5)c4=O)CC3)nn2)c(=O)c1NC(=O)C1CCCCCC1 (stereo not drawn) [JR14a]", "experimentalTarget": "hCB2R (Homo sapiens, UniProt P34972)", "result": "39 ± 0.93 % CP55,940"}
